Target: human serum albumin (HSA) (Homo sapiens, UniProt P02768)
Sequence (P02768 25-609): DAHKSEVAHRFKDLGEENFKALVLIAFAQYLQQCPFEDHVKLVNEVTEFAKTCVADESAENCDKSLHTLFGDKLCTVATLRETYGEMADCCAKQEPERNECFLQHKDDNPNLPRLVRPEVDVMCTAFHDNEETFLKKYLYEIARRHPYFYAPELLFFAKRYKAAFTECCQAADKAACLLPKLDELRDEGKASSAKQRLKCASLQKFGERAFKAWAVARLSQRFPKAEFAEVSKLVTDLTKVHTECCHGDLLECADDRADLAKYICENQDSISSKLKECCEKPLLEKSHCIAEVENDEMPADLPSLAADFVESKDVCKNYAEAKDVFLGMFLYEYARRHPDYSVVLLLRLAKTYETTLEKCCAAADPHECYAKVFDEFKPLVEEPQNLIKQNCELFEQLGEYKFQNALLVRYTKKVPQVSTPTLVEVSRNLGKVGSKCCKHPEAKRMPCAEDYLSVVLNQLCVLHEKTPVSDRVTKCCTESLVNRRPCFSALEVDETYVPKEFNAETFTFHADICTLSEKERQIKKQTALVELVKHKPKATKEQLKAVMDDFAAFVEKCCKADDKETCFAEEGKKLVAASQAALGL
Test: intrinsic tryptophan fluorescence quenching titration, Langmuir isotherm fit, room temperature, pH […]
measurement type: pKd
Conceptually, pKd converts a concentration in mol/L into minus its log10.

// recorded pKd for COC(=O)CCCNC(=O)c1ccc(N(CC(=O)OC(C)(C)C)c2ccc(OC)cc2)cc1 [compound 5] : 5.56
